- protocol_details: Absorption, emission and fluorescence quantum yield of the dyes
- Type: physicochemical
- test_context: PBS buffer pH 7.4
property_name: absorption maximum λmax (nm)
Answers are plain numbers, in nm.

Examples with answers:
INSERT INTO measurements (molecule, numeric_readout) VALUES
  ('[CH3][Ge]1([CH3])[c]2cc(N3CC(O)C3)ccc2C2(OC(=O)c3ccc(C(=O)O)cc32)c2ccc(N3CC(O)C3)c[c]21 [Compound 33]', 631),
  ('CN(C)c1ccc2c(c1)[Si](C)(C)c1cc(N(C)C)ccc1C21OC(=O)c2ccccc21 [SiR, reference compound]', 645),
  ('C[Si]1(C)c2cc(N3CC(O)C3)ccc2C2(OC(=O)c3ccc(C(=O)O)cc32)c2ccc(N3CC(O)C3)cc21 [Compound 42]', 641),
  ('[CH3][Ge]1([CH3])[c]2cc(N3CC(O)C3)ccc2C2(OC(=O)c3ccc(C(=O)NCCOCCOCCCCCCCl)cc32)c2ccc(N3CC(O)C3)c[c]21 [Compound 33-Halo]', 639);

Complete the entry with absorption maximum λmax for CN(C)c1ccc2[c](c1)[Ge]([CH3])([CH3])[c]1cc(N(C)C)ccc1C21OC(=O)c2ccc(C(=O)O)cc21 [Compound 19]
634

* * *

- protocol_details: Absorption, emission and fluorescence quantum yield of the dyes
- Format: physicochemical
- test_context: PBS buffer pH 7.4
- Experimental: Absorption spectra were recorded with a Varian Cary 4000 UV-Vis double-beam spectrophotometer (Agilent Technologies, USA). For the determination of the absorption spectra, quartz cells with a 1 cm path length were used. Emission spectra and fluorescence quantum yield were obtained on a Quantaurus-QY Absolute PL quantum yield spectrometer C11347 (Hamamatsu Photonics, Japan) or on a Varian Cary Eclipse fluorescence spectrometer (Agilent Technologies, USA).
property_name: emission maximum λem (nm)
Give bare numbers, in nm.

INSERT INTO results (compound, numeric_readout) VALUES
  ('[CH3][Ge]1([CH3])[c]2cc(N3CC(O)C3)ccc2C2(OC(=O)c3ccc(C(=O)O)cc32)c2ccc(N3CC(O)C3)c[c]21 [Compound 33]', 651),
  ('[CH3][Ge]1([CH3])[c]2cc(N3CC(O)C3)ccc2C2(OC(=O)c3ccc(C(=O)NCCOCCOCCCCCCCl)cc32)c2ccc(N3CC(O)C3)c[c]21 [Compound 33-Halo]', 660),
  ('CN(C)c1ccc2[c](c1)[Ge]([CH3])([CH3])[c]1cc(N(C)C)ccc1C21OC(=O)c2ccc(C(=O)O)cc21 [Compound 19]', 655),
  ('C[Si]1(C)c2cc(N3CC(O)C3)ccc2C2(OC(=O)c3ccc(C(=O)O)cc32)c2ccc(N3CC(O)C3)cc21 [Compound 42]', 662);

Now, please, on to the next compound.
Quick one: give measured emission maximum λem for CN(C)c1ccc2c(c1)[Si](C)(C)c1cc(N(C)C)ccc1C21OC(=O)c2ccccc21 [SiR, reference compound]
661

* * *

So I've got a bunch of molecules here, and I need their fluorescence quantum yield values.
- protocol_details: Absorption, emission and fluorescence quantum yield of the dyes
- Format: physicochemical
- test_context: in PBS / aqueous buffers
Answers are plain numbers.

INSERT INTO measurements (molecule, numeric_readout) VALUES
  ('C[Si]1(C)c2cc(N3CC(O)C3)ccc2C2(OC(=O)c3ccc(C(=O)O)cc32)c2ccc(N3CC(O)C3)cc21 [Compound 42]', 0.42),
  ('[CH3][Ge]1([CH3])[c]2cc(N3CC(O)C3)ccc2C2(OC(=O)c3ccc(C(=O)O)cc32)c2ccc(N3CC(O)C3)c[c]21 [Compound 33]', 0.60),
  ('CN(C)c1ccc2c(c1)[Si](C)(C)c1cc(N(C)C)ccc1C21OC(=O)c2ccccc21 [SiR, reference compound]', 0.41),
  ('C[Si]1(C)c2cc(N3CCC3)ccc2C2(OC(=O)c3ccccc32)c2ccc(N3CCC3)cc21 [JF646, reference compound]', 0.54);

Next item in the queue.
Check the records and state fluorescence quantum yield for CN(C)c1ccc2[c](c1)[Ge]([CH3])([CH3])[c]1cc(N(C)C)ccc1C21OC(=O)c2ccc(C(=O)O)cc21 [Compound 19]
0.43
